Target: CFTR-mediated chloride transport in human intestinal epithelial enteroid cells (Homo sapiens, UniProt P13569)
Sequence (P13569 with tags, fused parts or gaps DEL508-508): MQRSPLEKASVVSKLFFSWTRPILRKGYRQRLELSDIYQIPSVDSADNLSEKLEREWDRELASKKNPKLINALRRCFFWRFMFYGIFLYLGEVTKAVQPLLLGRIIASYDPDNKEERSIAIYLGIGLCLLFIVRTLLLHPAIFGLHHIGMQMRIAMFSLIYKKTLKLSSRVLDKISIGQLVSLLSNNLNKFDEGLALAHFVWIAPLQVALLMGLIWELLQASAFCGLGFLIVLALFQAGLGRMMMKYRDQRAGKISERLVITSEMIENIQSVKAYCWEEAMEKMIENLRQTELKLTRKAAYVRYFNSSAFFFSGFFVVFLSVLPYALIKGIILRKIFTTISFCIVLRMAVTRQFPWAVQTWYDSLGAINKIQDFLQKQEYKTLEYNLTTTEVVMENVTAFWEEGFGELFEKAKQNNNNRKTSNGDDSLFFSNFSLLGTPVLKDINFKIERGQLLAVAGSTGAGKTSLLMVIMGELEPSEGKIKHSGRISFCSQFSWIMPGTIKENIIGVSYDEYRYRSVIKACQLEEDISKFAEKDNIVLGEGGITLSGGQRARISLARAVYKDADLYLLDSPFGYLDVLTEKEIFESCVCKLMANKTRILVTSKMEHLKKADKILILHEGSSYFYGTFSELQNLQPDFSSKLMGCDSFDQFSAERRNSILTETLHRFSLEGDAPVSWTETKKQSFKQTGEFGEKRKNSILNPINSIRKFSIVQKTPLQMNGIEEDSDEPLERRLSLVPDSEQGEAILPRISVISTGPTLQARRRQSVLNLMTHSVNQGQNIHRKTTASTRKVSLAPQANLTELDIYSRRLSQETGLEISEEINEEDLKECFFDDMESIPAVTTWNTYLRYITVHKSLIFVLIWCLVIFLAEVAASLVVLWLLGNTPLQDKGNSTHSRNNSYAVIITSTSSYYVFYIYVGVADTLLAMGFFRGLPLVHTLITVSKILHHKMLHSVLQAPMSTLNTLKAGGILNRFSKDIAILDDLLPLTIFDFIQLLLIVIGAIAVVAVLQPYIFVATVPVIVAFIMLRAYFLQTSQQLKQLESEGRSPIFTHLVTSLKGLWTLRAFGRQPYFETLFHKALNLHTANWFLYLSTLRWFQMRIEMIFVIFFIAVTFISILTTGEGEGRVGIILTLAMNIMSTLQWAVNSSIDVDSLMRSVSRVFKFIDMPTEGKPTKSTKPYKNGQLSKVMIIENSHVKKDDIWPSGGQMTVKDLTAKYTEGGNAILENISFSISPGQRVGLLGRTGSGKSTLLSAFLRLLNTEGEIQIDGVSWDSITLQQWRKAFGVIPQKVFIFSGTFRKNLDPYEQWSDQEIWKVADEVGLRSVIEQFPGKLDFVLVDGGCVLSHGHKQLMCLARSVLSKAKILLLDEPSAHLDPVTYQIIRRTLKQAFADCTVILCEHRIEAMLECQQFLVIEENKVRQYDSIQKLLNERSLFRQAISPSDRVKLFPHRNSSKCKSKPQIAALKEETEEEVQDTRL
Test: Membrane potential dye, Enteroid Assay A
Type: cell-based
Conditions: Enteroid Assay A; read-out: Ent. A EC50
Entries annotated with measured EC50

Answered examples (4):
Q) What measured EC50 goes with Cc1cccc(C)c1-c1cc2nc(n1)NS(=O)(=O)c1cccc(c1)C(=O)N1CCN(C3CC4(CCC4)C3)C[C@H](C1)O2 ?
A) < 1 µM

Q) # iterate: Cc1cccc(C)c1-c1cc2nc(n1)NS(=O)(=O)c1cncc(c1)C(=O)N1Cc3cc(C(C)(C)C)ccc3[C@H](O2)[C@H]1CC(C)C
A) < 1 µM

Q) # iterate: CCOC(=O)C1CC1CN1CCN2C[C@@H](C1)Oc1cc(-c3c(C)cccc3C)nc(n1)NS(=O)(=O)c1cccc(c1)C2=O (some centres unmarked)
A) < 1 µM

Q) # iterate: Cc1cccc(C)c1-c1cc2nc(n1)NS(=N)(=O)c1cccc(c1)C(=O)N1CCN(Cc3ccccc3)CC(C1)O2 (centres unmarked) [Compound 248]
A) 1 to 3 µM

Further cases:
Q) What measured EC50 goes with Cc1cccc(C)c1-c1cc2nc(n1)NS(=O)(=O)c1cccc(c1)C(=O)N1C[C@@H](CN(CC(C)(C)C)C[C@H]1CC(C)C)O2 ?
A) < 1 µM

###

Entries annotated with measured EC50
Target: CFTR-mediated chloride transport in human intestinal epithelial enteroid cells (Homo sapiens, UniProt P13569)
Test: Membrane potential dye, Enteroid Assay A
Format: cell-based
Details: enteroid cells incubated with test compound 18-24 hours; acute 10 μM forskolin and 300 nM N-[2,4-bis(1,1-dimethylethyl)-5-hydroxyphenyl]-1,4-dihydro-4-oxoquinoline-3-carboxamide; read-out: Ent. A EC50

Answered examples (3):
Q) What measured EC50 goes with Cc1cccc(C)c1-c1cc2nc(n1)NS(=O)(=O)c1cccc(c1)C(=O)N1CCN(CCC(C)(C)C)C[C@H](C1)O2 ?
A) < 1 µM

Q) # iterate: Cc1cccc(C)c1-c1cc2nc(n1)NS(=O)(=O)c1cccc(c1)C(=O)N1CCN(Cc3cccc(C#N)c3)C[C@@H]1CO2
A) 1 to 3 µM

Q) # iterate: Cc1cccc(C)c1-c1cc2nc(n1)NS(=O)(=O)c1cc(n(C)n1)C(=O)N1Cc3ccccc3[C@H](C1)O2 [Compound 340]
A) 3 to 30 µM

Further cases:
Q) What measured EC50 goes with Cc1cccc(C)c1-c1cc2nc(n1)NS(=O)(=O)c1cccc(c1)C(=O)N1Cc3ccccc3C[C@H](C1)O2 (single isomer, unassigned) ?
A) 1 to 3 µM

Q) # iterate: Cc1cccc(C)c1-c1cc2nc(n1)NS(=O)(=O)c1cccc(c1)C(=O)N1Cc3ccccc3[C@H](C1)O2 (stereo in doubt)
A) < 1 µM

Q) # iterate: Cc1cccc(C)c1-c1cc2nc(n1)NS(=O)(=O)c1cccc(c1)C(=O)N1CCN(Cc3nccs3)C[C@@H]1CO2
A) 3 to 30 µM

###

Molecular target: CFTR-mediated chloride transport in human intestinal epithelial enteroid cells (Homo sapiens, UniProt P13569)
Test: Membrane potential dye, Enteroid Assay A
Type: cell-based
Details: Enteroid Assay A; read-out: Ent. A EC50
pEC50: −log10 of the molar value.
EXPERIMENTAL READOUT: pEC50

Answered examples (4):
Q) What measured pEC50 goes with Cc1cccc(C)c1-c1cc2nc(n1)NS(=O)(=O)c1cccc(c1)C(=O)N1CCN([C@@H](C)C(C)(C)C)C[C@H](C1)O2 (single isomer, unassigned) [Compound 73] ?
A) > 6.00

Q) # iterate: Cc1cccc(C)c1-c1cc2nc(n1)NS(=O)(=O)c1cccc(c1)C(=O)N1CCN(C3CCCCC3)C[C@H](C1)O2
A) > 6.00

Q) # iterate: Cc1cccc(C)c1-c1cc2nc(n1)NS(=O)(=O)c1cccc(c1)C(=O)N1CC3C(CCCN3C)[C@@H](C1)O2 (single isomer, unassigned)
A) 4.52 to 5.52

Q) # iterate: Cc1cccc(C)c1-c1cc2nc(n1)NS(=O)(=O)c1cccc(c1)C(=O)N1C[C@@H](CN(C3CCC(F)(F)CC3)C[C@H]1CC(C)C)O2
A) > 6.00

Further cases:
Q) What measured pEC50 goes with Cc1cccc(C)c1-c1cc2nc(n1)NS(=O)(=O)c1cccc(c1)C(=O)N1Cc3cc(C(C)(C)C)ccc3[C@@H](O2)[C@H]1CC(C)C ?
A) > 6.00

Q) # iterate: Cc1cccc(C)c1-c1cc2nc(n1)NS(=O)(=O)c1cccc(c1)C(=O)N1C[C@@H](CN(C)C[C@@H]1CCC(C)C)O2
A) > 6.00
